measurement_notes: Primary fluorescence-based thiol-reactive (MSTI) qHTS assay for identification of artifact compounds. (AID 1845221);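 note: thiol-reactive compounds lower the probe fluorescence signal; nearly all actives have a fitted effect of over 65% in size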
experimental_conditions: MSTI thiol-reactivity probe, 1 h; series mostly up to 53.8 µM
Results filed as inconclusive are left out. Active and inactive are the calls of the source. Calls come from the whole dose curve; as a rule, active = well fitted inhibition curve with a large enough effect; inconclusive = small, poorly fitted or top-dose-only effect; inactive = no such curve, though single readings can be large or run the other way.
Use one of these outcomes when replying: T for active, F for inactive

The examples below pair each entry with its known result.
1) C[C@@H]1Cc2c(Cl)cc(C(=O)N[C@@H](Cc3ccccc3)C(=O)O)c(O)c2C(=O)O1: F
2) CC(O)(c1ccccc1)C(Cc1ccc(Cl)cc1)n1cncn1 (configuration not stated): F
3) O=C(C[C@@H]1NCCC[C@H]1O)Cn1cnc2ccccc2c1=O: F
4) CC[C@@H](C)[C@H]1C(=O)O[C@H](C(C)C)C(=O)N(C)[C@@H]([C@@H](C)CC)C(=O)O[C@H](C(C)C)C(=O)N(C)[C@@H]([C@H](C)CC)C(=O)O[C@H](C(C)C)C(=O)N1C: F
5) C[C@]12CCC(=O)C=C1CC[C@@H]1[C@@H]2[C@@H](O)C[C@]2(C)C(=O)CC[C@@H]12: F

Now for a further compound.
Write down the call the test reported for this compound. Item: CC(C)OC(=O)c1ccnc2cc(C(OCCN3CCCCC3)c3ccccc3Cl)sc12 (configuration not stated)
F

----------
Test system: CAOV3
measurement_notes: Primary qHTS to identify gynecologic anti-cancer compounds using libraries of approved drugs and bioactive compounds (AID 1345084); note: nearly all actives have a fitted effect of over 55% in size
experimental_conditions: Gynecologic cancer cell panel viability, ATPlite luminescence, 48 h; series mostly up to 57.5 µM
Results filed as inconclusive are left out. The source made the active and inactive calls. Calls come from the whole dose curve; as a rule, active = well fitted cell-killing curve with a large enough effect; inconclusive = small, poorly fitted or top-dose-only effect, or effect the other way; inactive = flat fitted curve, though single readings scatter.
Bench note: report the call from active, inactive

Field: example entries. Status: answers known.
1. N#Cc1ccc(N2CCN(C(=O)COc3ccc4[nH]cc(CCN)c4c3)CC2)cc1: inactive
2. CCN1C[C@]2(COC)CC[C@H](O)[C@@]34C5C[C@@H]6[C@@H](OC)C[C@@](OC(C)=O)(C5[C@@H]6OC(C)=O)[C@H]([C@H](OC)C23)[C@@H]14 (some centres not stated): inactive

I'd appreciate the recorded outcome for CN(C)c1cc2c(cc1Sc1nc3c(N)nccc3n1CCNCC(C)(C)C)OCO2 from this test.
active

State the result this test recorded for C=C(C)[C@@]12O[C@@H]1[C@@]1(C)C(=C[C@H]2O)CC[C@@H](O)[C@@H]1C .
inactive

----------
measurement_notes: qHTS for Inhibitors of the Functional Ribonucleoprotein Complex (vRNP) of Lassa (LASV) Arenavirus: LASV Primary Screen - GLuc reporter signal (AID 1347082); note: nearly all actives have a fitted effect of over 60% in size
experimental_conditions: LASV minigenome vRNP, Gaussia luciferase reporter; series mostly up to 57.5 µM
Results filed as inconclusive are left out. Calls of active or inactive are those of the source. The call rests on the fitted dose curve; tested in HEK293 reporter line.
Parameter call: string, one of label 1 = active, label 0 = inactive

1. CCNC(=O)Nc1ccc2ncc(Nc3ccc(C)cc3)nc2n1: label 0

Recorded test call requested for NC(=O)c1cccc(N)c1
label 0

How did this test come out for COc1c2c(c(CCC(=O)O)c3c1C=CC(C)(C)O3)OC(C)(C)C=C2 ?
label 0

Query: recorded result category for COc1c(C)c2c(c(O)c1CC=C(C)CCC(=O)O)C(=O)OC2 in this test
label 1

What did the test return for C=CC(C)(C)O[C@@H]1O[C@H](CO)[C@@H](O)[C@H](O)[C@H]1O ?
label 0

Test call, this molecule: CN1CCN(c2cccc(Nc3nc4c(-c5ccc(S(C)(=O)=O)cc5)cccn4n3)c2)CC1
label 0

Could you kindly confirm the outcome this assay logged for CC(C)N(CCCNC(=O)Nc1ccc(C(C)(C)C)cc1)C[C@H]1O[C@@H](n2cc(Br)c3c(N)ncnc32)[C@H](O)[C@H]1O ?
label 0
